Biological target: UniProtKB Q5T1V6
Sequence (Q5T1V6 1-619): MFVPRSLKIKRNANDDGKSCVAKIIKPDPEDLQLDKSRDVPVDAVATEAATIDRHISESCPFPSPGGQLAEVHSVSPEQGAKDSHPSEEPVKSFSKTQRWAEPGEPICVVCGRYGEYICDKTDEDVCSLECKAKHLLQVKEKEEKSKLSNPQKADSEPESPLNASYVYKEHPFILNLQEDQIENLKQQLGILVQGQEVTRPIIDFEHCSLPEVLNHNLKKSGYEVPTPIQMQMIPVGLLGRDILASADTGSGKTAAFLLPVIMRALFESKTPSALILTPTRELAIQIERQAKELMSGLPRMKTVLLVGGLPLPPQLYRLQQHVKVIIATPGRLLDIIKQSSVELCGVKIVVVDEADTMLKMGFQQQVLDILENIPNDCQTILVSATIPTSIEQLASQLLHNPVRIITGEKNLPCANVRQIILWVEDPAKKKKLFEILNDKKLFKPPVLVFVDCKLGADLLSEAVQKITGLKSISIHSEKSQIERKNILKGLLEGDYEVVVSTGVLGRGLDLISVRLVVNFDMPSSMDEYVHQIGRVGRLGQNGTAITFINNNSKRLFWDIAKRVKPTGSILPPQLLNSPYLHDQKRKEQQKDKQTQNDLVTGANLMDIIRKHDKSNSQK
Assay: Competitive isoTOP-ABPP, cell lysates
Format: binding
Details: 500 μm, in-vitro_ramos
Reported values of isoTOP-ABPP reactivity ratio, Q5T1V6_C414 for individual entries
Reply briefly: the number, and no unit.

C=CC(=O)Nc1cc(F)c(N2CCN(C(=O)OC(C)(C)C)CC2)c(F)c1 | 1.8

So for `Cc1ccc(C=C(C#N)C(=O)NCCN2CCOCC2)cc1` , the logged isoTOP-ABPP reactivity ratio, Q5T1V6_C414 turned out to be 1.0

Recorded result, `C=CC(=O)N1CCC(c2noc3ccc(F)cc23)CC1` , isoTOP-ABPP reactivity ratio, Q5T1V6_C414: 1.0

Record `CCN(CC)c1ccc(S(N)(=O)=O)cc1NC(=O)CCl` , field isoTOP-ABPP reactivity ratio, Q5T1V6_C414: 2.0

Measured isoTOP-ABPP reactivity ratio, Q5T1V6_C414 of `C=CC(=O)Nc1cc(C)c(Br)cc1C` : 1.4

Looking up `O=C(CCl)Nc1ccccc1C1CCCCCC1` , I found its isoTOP-ABPP reactivity ratio, Q5T1V6_C414 recorded as 1.3

====

Quick reference for isoTOP-ABPP ratio Q14790_C360 among some molecules
Biological target: cysteines in MDA-MB-231 and Ramos cells (Homo sapiens, UniProt Q14790)
Sequence (Q14790 217-479): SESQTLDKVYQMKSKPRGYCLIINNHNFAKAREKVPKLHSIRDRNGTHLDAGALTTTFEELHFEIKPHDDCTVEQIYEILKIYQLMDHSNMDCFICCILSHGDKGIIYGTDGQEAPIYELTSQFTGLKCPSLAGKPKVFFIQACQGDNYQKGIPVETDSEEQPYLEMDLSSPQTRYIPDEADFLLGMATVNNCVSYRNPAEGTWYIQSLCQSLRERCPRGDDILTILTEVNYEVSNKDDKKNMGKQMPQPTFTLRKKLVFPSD
Experiment: Competitive isoTOP-ABPP in situ (fragment-treated cells)
Type: cell-based
Details: 200 μM, insitu, 231
Please reply with the number alone, leaving off any unit.

Some solved cases for reference:
O=C(CCl)NC12CC3CC(CC(C3)C1)C2 | 0.9
C=CC(=O)N(Cc1cccnc1)c1cc(C(F)(F)F)cc(C(F)(F)F)c1 | 0.5
O=C(CCl)NCCc1c[nH]c2ccccc12 | 1.2
C=CC(=O)Nc1cc(F)c(N2CCN(C(=O)OC(C)(C)C)CC2)c(F)c1 | 1.0
Cc1ccc(C=C(C#N)C(=O)NCCN2CCOCC2)cc1 | 0.5

isoTOP-ABPP ratio Q14790_C360 reported for this molecule `CC(C)CCOCCNC(=O)CCl` : 0.4

Memo: CC1CCc2ccccc2N1C(=O)CCl (stereo not shown) , reported isoTOP-ABPP ratio Q14790_C360: 20.0

====

Molecular target: XPO1 C34 (O14980) (Homo sapiens, UniProt O14980)
Sequence (O14980 whole entry): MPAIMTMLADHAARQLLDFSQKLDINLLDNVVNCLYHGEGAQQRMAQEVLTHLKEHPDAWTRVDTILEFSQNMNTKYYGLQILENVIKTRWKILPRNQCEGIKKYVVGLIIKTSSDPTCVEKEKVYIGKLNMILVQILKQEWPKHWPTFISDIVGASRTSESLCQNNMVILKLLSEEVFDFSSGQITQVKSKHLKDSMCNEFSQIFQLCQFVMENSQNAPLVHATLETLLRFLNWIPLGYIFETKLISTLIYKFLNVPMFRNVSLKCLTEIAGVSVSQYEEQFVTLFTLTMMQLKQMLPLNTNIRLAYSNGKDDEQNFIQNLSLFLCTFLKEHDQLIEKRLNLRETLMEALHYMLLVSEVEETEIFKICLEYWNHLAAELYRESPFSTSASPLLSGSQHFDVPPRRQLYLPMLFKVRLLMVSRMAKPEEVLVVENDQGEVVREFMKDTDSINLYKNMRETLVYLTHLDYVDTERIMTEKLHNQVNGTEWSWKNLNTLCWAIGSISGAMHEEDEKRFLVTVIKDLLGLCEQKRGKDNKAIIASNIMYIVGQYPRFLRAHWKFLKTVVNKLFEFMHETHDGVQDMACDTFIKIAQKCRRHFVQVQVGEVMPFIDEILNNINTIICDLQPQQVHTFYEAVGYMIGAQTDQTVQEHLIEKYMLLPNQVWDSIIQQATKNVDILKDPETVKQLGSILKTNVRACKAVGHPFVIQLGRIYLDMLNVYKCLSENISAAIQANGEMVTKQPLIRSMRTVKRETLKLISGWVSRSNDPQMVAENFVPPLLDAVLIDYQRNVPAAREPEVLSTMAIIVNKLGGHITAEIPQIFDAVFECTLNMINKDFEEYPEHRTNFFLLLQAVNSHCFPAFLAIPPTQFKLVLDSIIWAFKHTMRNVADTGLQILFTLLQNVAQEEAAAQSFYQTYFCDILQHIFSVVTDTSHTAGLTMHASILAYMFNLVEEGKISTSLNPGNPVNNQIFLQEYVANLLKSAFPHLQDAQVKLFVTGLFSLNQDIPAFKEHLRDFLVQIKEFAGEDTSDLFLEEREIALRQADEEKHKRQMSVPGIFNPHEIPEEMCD
Experiment: Competitive isoTOP-ABPP, cell lysates
Assay type: binding
Conditions: 500 μm, in-vitro_ramos
Description: TEV digests were pressure loaded onto a 250 μm (inner diameter) fused silica capillary column packed with C18 resin (Aqua 5 μm, Phenomenex). The samples were analyzed by multidimensional liquid chromatography tandem mass spectrometry (MudPIT), using an LTQ-Velos Orbitrap mass spectrometer (Thermo Scientific) coupled to an Agilent 1200-series quaternary pump. […]
Catalogue of isoTOP-ABPP reactivity ratio, O14980_C34 values

C=CC(=O)Nc1cc(C)c(Br)cc1C | 1.1

Entry under test: `CCN(CC)c1ccc(S(N)(=O)=O)cc1NC(=O)CCl` . Its isoTOP-ABPP reactivity ratio, O14980_C34 was 1.1

For this compound ( `CC(C)(C)c1cc(NC(=O)CCl)on1` ), measured isoTOP-ABPP reactivity ratio, O14980_C34 is 1.0

Measured isoTOP-ABPP reactivity ratio, O14980_C34 of `O=C(CCl)Nc1ccccc1C1CCCCCC1` : 1.3

According to the records, this compound `C=CC(=O)N(Cc1cccnc1)c1cc(C(F)(F)F)cc(C(F)(F)F)c1` displays isoTOP-ABPP reactivity ratio, O14980_C34 of 0.8

# compound `O=C(CCl)N(Cc1ccc(F)cc1)C12CC3CC(CC(C3)C1)C2` ; its isoTOP-ABPP reactivity ratio, O14980_C34 = 1.1

Field isoTOP-ABPP reactivity ratio, O14980_C34 (entry `Cc1ccc(C=C(C#N)C(=O)NCCN2CCOCC2)cc1` ) reads 2.0

// recorded isoTOP-ABPP reactivity ratio, O14980_C34 for `C=CC(=O)N1CCC(c2noc3ccc(F)cc23)CC1` : 0.9

isoTOP-ABPP reactivity ratio, O14980_C34 reported for this compound `C=CC(=O)Nc1cc(F)c(N2CCN(C(=O)OC(C)(C)C)CC2)c(F)c1` : 1.0

====

Target: ACAT1 C413 (P24752) (Homo sapiens, UniProt P24752)
Sequence (P24752 34-427): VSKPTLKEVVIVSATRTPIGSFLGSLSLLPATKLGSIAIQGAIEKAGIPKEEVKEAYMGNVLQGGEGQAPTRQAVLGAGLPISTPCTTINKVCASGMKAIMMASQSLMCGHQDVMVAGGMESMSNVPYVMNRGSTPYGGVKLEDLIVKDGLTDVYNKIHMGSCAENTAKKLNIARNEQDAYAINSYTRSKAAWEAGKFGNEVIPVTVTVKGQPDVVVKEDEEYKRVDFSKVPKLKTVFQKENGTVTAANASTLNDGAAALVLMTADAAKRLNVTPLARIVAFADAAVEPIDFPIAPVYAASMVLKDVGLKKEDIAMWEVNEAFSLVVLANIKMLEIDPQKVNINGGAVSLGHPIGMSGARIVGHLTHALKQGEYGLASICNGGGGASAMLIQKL
Assay: Competitive isoTOP-ABPP, cell lysates
Assay type: binding
Conditions: 500 μm, in-vitro_ramos_231
measured attribute: isoTOP-ABPP reactivity ratio, P24752_C413
Please state the value as a number alone, without comment.

Examples with their reported isoTOP-ABPP reactivity ratio, P24752_C413 follow.
O=C(CCl)N(Cc1ccc(F)cc1)C12CC3CC(CC(C3)C1)C2 | 0.9
C=CC(=O)Nc1cc(F)c(N2CCN(C(=O)OC(C)(C)C)CC2)c(F)c1 | 1.1
COC(=O)C1Cc2ccccc2CN1C(=O)CCl (centres unmarked) | 2.7

Record `C=CC(=O)N(Cc1cccnc1)c1cc(C(F)(F)F)cc(C(F)(F)F)c1` , field isoTOP-ABPP reactivity ratio, P24752_C413: 1.6

Looking up `O=C(CCl)Nc1cc(C(=O)O)cc(C(F)(F)F)c1` , I found its isoTOP-ABPP reactivity ratio, P24752_C413 recorded as 2.7

For reference, reported isoTOP-ABPP reactivity ratio, P24752_C413 for `CC(C)(C)c1cc(NC(=O)CCl)on1` stands at 6.8

isoTOP-ABPP reactivity ratio, P24752_C413 in this record for `C=CC(=O)Nc1cc(C)c(Br)cc1C` : 0.9

Looking up `Cc1ccc(C=C(C#N)C(=O)NCCN2CCOCC2)cc1` , I see its isoTOP-ABPP reactivity ratio, P24752_C413 listed as 0.8

====

Target: PDIA6 C55 (Q15084) (Homo sapiens, UniProt Q15084)
Sequence (Q15084 20-440): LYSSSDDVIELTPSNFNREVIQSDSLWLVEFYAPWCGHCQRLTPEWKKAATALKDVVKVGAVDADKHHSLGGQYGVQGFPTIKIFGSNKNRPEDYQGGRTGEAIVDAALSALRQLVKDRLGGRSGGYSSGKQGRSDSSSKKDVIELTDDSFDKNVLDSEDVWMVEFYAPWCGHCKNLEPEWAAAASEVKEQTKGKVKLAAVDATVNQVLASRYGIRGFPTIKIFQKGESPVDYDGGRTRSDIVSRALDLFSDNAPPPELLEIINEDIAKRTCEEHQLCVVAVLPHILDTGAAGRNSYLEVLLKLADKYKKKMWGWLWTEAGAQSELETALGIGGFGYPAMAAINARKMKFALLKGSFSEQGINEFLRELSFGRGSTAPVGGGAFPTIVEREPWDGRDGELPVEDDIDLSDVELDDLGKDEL
Experiment: Competitive isoTOP-ABPP, cell lysates
Assay type: binding
Settings: 500 μm, in-vitro_ramos
measured attribute: isoTOP-ABPP reactivity profile ratio, Q15084_C55
Respond using a number only.

Sample records with isoTOP-ABPP reactivity profile ratio, Q15084_C55:
C=CC(=O)N1CCC(Cc2ccccc2)CC1 | 1.0
N#CC(=Cc1ccc(-c2ccccc2Cl)o1)C(N)=O | 0.9

Lab note: measured isoTOP-ABPP reactivity profile ratio, Q15084_C55 of `O=C(CCl)Nc1ccc(-c2ccccc2)cc1` was 1.8

Notebook: `COc1cc(NC(=O)CCl)cc(OC)c1` , isoTOP-ABPP reactivity profile ratio, Q15084_C55 read as 20.0

The compound listed as `O=C(CCl)Nc1cccc2ncccc12` shows isoTOP-ABPP reactivity profile ratio, Q15084_C55 equal to 2.7

====

Target: SMARCC2 C145 (Q8TAQ2) (Homo sapiens)
Sequence (Q8TAQ2 whole entry): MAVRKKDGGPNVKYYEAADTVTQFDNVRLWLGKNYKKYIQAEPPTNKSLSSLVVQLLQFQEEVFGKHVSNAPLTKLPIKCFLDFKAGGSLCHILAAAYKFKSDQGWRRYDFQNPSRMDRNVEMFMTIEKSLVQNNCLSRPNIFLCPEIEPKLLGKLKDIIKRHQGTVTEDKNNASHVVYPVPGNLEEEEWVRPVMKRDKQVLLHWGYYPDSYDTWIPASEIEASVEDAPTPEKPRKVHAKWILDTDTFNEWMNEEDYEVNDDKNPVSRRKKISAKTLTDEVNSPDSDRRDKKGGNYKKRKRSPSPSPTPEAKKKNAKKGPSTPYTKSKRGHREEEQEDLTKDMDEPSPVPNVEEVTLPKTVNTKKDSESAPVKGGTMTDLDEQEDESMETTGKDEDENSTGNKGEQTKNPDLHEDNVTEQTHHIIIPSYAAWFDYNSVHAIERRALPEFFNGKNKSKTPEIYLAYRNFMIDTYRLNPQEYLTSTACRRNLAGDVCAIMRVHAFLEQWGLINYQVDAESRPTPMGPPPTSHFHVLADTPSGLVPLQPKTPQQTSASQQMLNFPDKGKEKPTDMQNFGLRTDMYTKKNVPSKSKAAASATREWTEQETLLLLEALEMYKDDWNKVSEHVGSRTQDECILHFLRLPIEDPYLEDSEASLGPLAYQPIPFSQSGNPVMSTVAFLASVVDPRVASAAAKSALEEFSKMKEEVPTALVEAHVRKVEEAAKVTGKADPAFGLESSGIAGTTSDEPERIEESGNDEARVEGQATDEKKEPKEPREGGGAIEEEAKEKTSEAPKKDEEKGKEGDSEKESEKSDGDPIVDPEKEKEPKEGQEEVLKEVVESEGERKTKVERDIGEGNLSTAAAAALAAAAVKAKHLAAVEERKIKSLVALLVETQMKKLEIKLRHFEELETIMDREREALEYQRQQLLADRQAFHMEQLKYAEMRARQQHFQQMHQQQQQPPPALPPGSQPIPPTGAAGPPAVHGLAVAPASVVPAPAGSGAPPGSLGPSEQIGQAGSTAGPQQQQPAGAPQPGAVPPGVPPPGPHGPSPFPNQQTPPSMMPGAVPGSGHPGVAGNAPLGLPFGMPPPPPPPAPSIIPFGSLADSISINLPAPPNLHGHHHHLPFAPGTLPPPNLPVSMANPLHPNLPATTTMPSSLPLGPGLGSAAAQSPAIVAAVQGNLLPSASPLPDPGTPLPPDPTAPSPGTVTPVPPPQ
Assay: Competitive isoTOP-ABPP, cell lysates
Type: binding
Conditions: 500 μm, in-vitro_ramos_231
Lab note: anything with isoTOP-ABPP reactivity ratio, Q8TAQ2_C145 at or over 1 counts as true (1); the rest go in false (0).

Query :: Please check the record C=CC(=O)N(Cc1cccnc1)c1cc(C(F)(F)F)cc(C(F)(F)F)c1 [compound 31] and state if its isoTOP-ABPP reactivity ratio, Q8TAQ2_C145 is at or above 1.
Result :: true (1)

Query :: Can Cc1ccc(C=C(C#N)C(=O)NCCN2CCOCC2)cc1 [compound 41] be said to have isoTOP-ABPP reactivity ratio, Q8TAQ2_C145 at or above 1?
Result :: true (1)

Query :: Is isoTOP-ABPP reactivity ratio, Q8TAQ2_C145 for C=CC(=O)Nc1cc(C)c(Br)cc1C [compound 40] at or above 1?
Result :: false (0)

Query :: Hi team, for C=CC(=O)Nc1cc(F)c(N2CCN(C(=O)OC(C)(C)C)CC2)c(F)c1 [compound 38] , is the recorded isoTOP-ABPP reactivity ratio, Q8TAQ2_C145 at or above 1?
Result :: true (1)

Query :: Dear colleague, could you confirm whether CC(C)(C)c1cc(NC(=O)CCl)on1 [compound 32] has isoTOP-ABPP reactivity ratio, Q8TAQ2_C145 at or above 1?
Result :: true (1)

Query :: // inclusive: isoTOP-ABPP reactivity ratio, Q8TAQ2_C145 at least 1? input: O=C(CCl)Nc1ccccc1C1CCCCCC1 [compound 35]
Result :: false (0)

Query :: Test whether the compound COC(=O)C1Cc2ccccc2CN1C(=O)CCl (stereo not shown) [compound 39] records isoTOP-ABPP reactivity ratio, Q8TAQ2_C145 of 1 or higher.
Result :: true (1)

The reported numbers originate from patent US10670605B2.
